Parameter: bioavailability. Scope: all listed entries.
protocol-summary: Oral bioavailability in ICR mouse at 100 mg/kg
Format: ADME, organism-based
condition-summary: in vivo
Don't forget the unit after the number, please.

O=C(NO)c1ccc(NC2CCN(c3ccc(Cl)cc3)C2=O)cc1 (configuration not stated)
3%

Here is the next item to consider.
Field bioavailability (entry C[C@]1(Nc2ccc(C(=O)NO)cc2)CCN(c2ccc(Cl)cc2)C1=O ) reads 55%

---

protocol-summary: Half life in ICR mouse at 25 mg/kg, iv
Format: ADME, organism-based
Design: dose 25 mg/kg, route intravenous
condition-summary: in vivo
observed-property: half-life (min)
Write the answer as a number in min, unit excluded.

Form field half-life, entry O=C(NO)c1ccc(NC2CCN(c3ccccc3)C2=O)cc1 (stereo unspecified) : 42

---

protocol-summary: Cmax in ICR mouse at 50 mg/kg, po
Format: ADME, organism-based
Parameters: dose 50 mg/kg, route oral
condition-summary: in vivo
observed-property: Cmax (ng/mL)
Answer with a number only, understood to be in ng/mL.

The molecule listed as O=C(NO)c1ccc(NC2CCN(c3ccccc3)C2=O)cc1 (stereo unspecified) shows Cmax equal to 34

---

The listing below reports EC50 for molecules tested on Protein deacetylase HDAC6 (Homo sapiens, UniProt Q9UBN7).
Sequence (Q9UBN7 whole entry): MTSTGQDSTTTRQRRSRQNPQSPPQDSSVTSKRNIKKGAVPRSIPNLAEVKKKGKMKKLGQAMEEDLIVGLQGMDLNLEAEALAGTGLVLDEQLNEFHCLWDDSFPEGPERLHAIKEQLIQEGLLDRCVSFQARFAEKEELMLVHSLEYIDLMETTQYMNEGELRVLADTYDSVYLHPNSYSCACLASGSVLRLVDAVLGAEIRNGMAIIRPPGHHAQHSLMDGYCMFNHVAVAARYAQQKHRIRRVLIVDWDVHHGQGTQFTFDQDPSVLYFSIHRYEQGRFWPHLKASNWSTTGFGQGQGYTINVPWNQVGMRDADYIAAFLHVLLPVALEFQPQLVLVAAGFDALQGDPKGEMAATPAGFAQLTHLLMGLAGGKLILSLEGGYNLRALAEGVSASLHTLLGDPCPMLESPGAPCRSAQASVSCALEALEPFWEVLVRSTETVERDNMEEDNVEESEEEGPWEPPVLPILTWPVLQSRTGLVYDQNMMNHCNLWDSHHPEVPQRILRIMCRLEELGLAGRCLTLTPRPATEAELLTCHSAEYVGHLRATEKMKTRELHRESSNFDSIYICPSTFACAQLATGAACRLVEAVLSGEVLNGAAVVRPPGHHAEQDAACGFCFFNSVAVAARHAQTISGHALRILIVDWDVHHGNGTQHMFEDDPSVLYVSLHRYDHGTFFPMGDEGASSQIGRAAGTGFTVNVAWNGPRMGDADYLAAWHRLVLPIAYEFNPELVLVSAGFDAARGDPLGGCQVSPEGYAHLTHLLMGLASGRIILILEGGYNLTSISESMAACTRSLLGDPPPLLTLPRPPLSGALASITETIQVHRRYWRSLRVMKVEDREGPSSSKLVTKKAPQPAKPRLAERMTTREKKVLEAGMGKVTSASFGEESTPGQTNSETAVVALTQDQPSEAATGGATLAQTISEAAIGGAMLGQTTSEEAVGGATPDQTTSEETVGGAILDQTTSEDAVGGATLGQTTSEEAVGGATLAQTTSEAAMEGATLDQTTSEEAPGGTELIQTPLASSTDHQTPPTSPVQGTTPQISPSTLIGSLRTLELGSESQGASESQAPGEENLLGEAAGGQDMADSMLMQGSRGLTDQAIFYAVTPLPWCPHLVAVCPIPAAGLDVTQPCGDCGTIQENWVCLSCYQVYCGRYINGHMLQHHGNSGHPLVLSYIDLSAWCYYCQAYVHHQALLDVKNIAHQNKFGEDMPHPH

The cases that follow already have their EC50 on record.
CNc1ccc(C(=O)NO)cc1
19.2 µM
C[C@]1(Nc2ccc(C(=O)NO)cc2)CCN(c2ccc(Cl)cc2)C1=O
0.3 µM

Reported EC50 (Protein deacetylase HDAC6 (Homo sapiens, UniProt Q9UBN7)) for entry O=C(NO)c1ccc(NC2CCN(c3ccc(Cl)cc3)C2=O)c(Cl)c1 (stereo not drawn) is 17.4 µM

---

protocol-summary: Intrinsic clearance in mouse liver microsomes at 1 uM preincubated for 10 mins followed by NADPH addition measured over 30 mins by LC-MS/MS analysis
Assay type: ADME
condition-summary: read-out: CLH
Label Criterion met when CLint scaled at 1 µM is at or above 40 mL/min/kg; anything below gets Criterion not met.

# example entries with known answers
O=C(NO)c1ccc(NC2CCN(c3ccc(Cl)cc3)C2=O)cc1 (stereo not given)
Criterion met
O=C(NO)c1ccc(NC2CCN(c3ccc(Cl)cc3)C2)cc1 (stereo not given)
Criterion met
C[C@]1(Nc2ccc(C(=O)NO)cc2)CCN(c2ccc(Cl)cc2)C1=O
Criterion not met
O=C(NO)c1ccc(NC2CCN(c3ccccc3)C2=O)cc1 (stereo not given)
Criterion not met

Consider the record given below.
In plain terms: is recorded CLint scaled at 1 µM at least 40 mL/min/kg for O=C(CCCCCCC(=O)Nc1ccccc1)NO ? Criterion not met

---

protocol-summary: Oral bioavailability in ICR mouse at 50 mg/kg
Assay type: ADME, organism-based
condition-summary: in vivo
observed-property: bioavailability (%)
Numbers only here, please. The scale is %.

Input O=C(CCCCCCC(=O)Nc1ccccc1)NO . Output bioavailability: 8

---

protocol-summary: Solubility of the compound in PBS measured after overnight incubation by LYSA assay
Type: physicochemical
Lab note: compare solubility against 20 µg/mL. Equal or greater, write Criterion met. Smaller, write Criterion not met.

Worked set:
O=C(NO)c1ccc(NC2CCN(c3ccc4ccccc4c3)C2=O)cc1 (stereo not drawn)
Criterion not met
O=C(NO)c1ccc(OC2CCN(c3ccccc3)C2=O)cc1 (stereo not drawn)
Criterion met
C[C@]1(Nc2ccc(C(=O)NO)cc2)CCN(c2ccc(Cl)cc2)C1=O
Criterion met
O=C(NO)c1ccc(NC2CCN(c3ccccc3Cl)C2=O)cc1 (stereo not drawn)
Criterion met
CC1(Nc2ccc(C(=O)NO)cc2)CCN(c2ccc3ncccc3c2)C1=O (stereo not drawn)
Criterion not met
N#Cc1ccc(N2CCC(Nc3ccc(C(=O)NO)cc3)C2=O)cc1 (stereo not drawn)
Criterion met

Given O=C(NO)c1ccc(NC2CCN(c3ccc(Cl)cc3)C2=O)cc1 (stereo not drawn) , state whether its solubility is at least 20 µg/mL. Criterion not met

Please indicate if the recorded solubility for O=C(NO)c1ccc2c(c1)CC(Nc1nccc(-c3cccnc3)n1)CN2 (stereo not drawn) meets or exceeds 20 µg/mL. Criterion met

Does the reported solubility for CC1(Nc2ccc(C(=O)NO)cc2)CCN(c2ccc(Cl)cc2)C1=O (stereo not drawn) fall at or above the 20 µg/mL mark? Criterion not met
